Where do these numbers come from? They come from ChEMBL document CHEMBL1649165.

test system: Torulaspora delbrueckii; test: Antimicrobial activity against Candida coliculosa by broth microdilution method; assay type: functional
*1 amine or outer side, *2 acyl side, *3 side chain or, on linkers, in order; H or OH if unused. Where a SMILES comes first, the peptide text is derived from it. Bridges are numbered along the chain shown (N, C = ends). [ ]: non-standard residue; d: D form. The star is where a group is joined. hTyr(3S-OH,4S-OH,3'-OSO3H) = N[C@H](C(=O)O)[C@H](O)[C@@H](O)c1ccc(O)c(OS(=O)(=O)O)c1; pTerphenylCO(4''-OnC5H11) = CCCCCOc1ccc(-c2ccc(-c3ccc(C(=O)*)cc3)cc2)cc1; Orn(4R-OH,5R-OH) = O=C([C@H](C[C@@H](O)[C@@H](O)N[*:3])N[*:1])[*:2]; hTyr(3S-OH,4S-OH) = N[C@H](C(=O)O)[C@H](O)[C@@H](O)c1ccc(O)cc1; Pro(3S-OH,4S-Me) = C[C@H]1CN[C@H](C(=O)O)[C@H]1O; X1 = CCCCCOc1ccc(-c2cc(-c3ccc(C(=O)*)cc3)no2)cc1; Gln(3R-OH) = NC(=O)C[C@@H](O)[C@H](N)C(=O)O; Hyp = O=C(O)[C@@H]1C[C@@H](O)CN1
Quick list: MIC50 per entry.
assay-metric: MIC50 (µg/mL)

INSERT INTO assay_data (compound, assay_metric, units, experimental_result) VALUES
  ('C[C@@H]1[C@H](O)[C@@H](C)/C=C/C=C/C=C/C=C/C=C/C=C/C=C/[C@H](O[C@@H]2O[C@H](C)[C@@H](O)[C@H](N)[C@@H]2O)C[C@@H]2O[C@](O)(C[C@@H](O)C[C@@H](O)[C@H](O)CC[C@@H](O)C[C@@H](O)CC(=O)O[C@H]1C)C[C@H](O)[C@H]2C(=O)O [AMPHOTERICIN B]', 'MIC50', 'µg/mL', 0.12),
  ('CCCCCOc1ccc(-c2cc(-c3ccc(C(=O)N[C@H]4C[C@@H](O)[C@@H](O)NC(=O)[C@@H]5[C@@H](O)[C@@H](C)CN5C(=O)[C@H]([C@H](O)CC(N)=O)NC(=O)[C@H]([C@H](O)[C@@H](O)c5ccc(O)c(OS(=O)(=O)O)c5)NC(=O)[C@@H]5C[C@@H](O)CN5C(=O)[C@H]([C@@H](C)O)NC4=O)cc3)no2)cc1 [MICAFUNGIN] (X1-[Orn(4R-OH,5R-OH)]T[Hyp][hTyr(3S-OH,4S-OH,3''-OSO3H)][Gln(3R-OH)][Pro(3S-OH,4S-Me)]; lactam 1-C)', 'MIC50', 'µg/mL', 0.03),
  ('CCCCCOc1ccc(-c2ccc(-c3ccc(C(=O)N[C@H]4C[C@@H](O)[C@@H](O)NC(=O)[C@@H]5[C@@H](O)[C@@H](C)CN5C(=O)[C@H]([C@@H](C)O)NC(=O)[C@H]([C@H](O)[C@@H](O)c5ccc(O)cc5)NC(=O)[C@@H]5C[C@@H](O)CN5C(=O)[C@H]([C@@H](C)O)NC4=O)cc3)cc2)cc1 [ANIDULAFUNGIN] ({pTerphenylCO(4''''-OnC5H11)}-[Orn(4R-OH,5R-OH)]T[Hyp][hTyr(3S-OH,4S-OH)]T[Pro(3S-OH,4S-Me)]; lactam 1-C)', 'MIC50', 'µg/mL', 0.06),
  ('Nc1nc(=O)[nH]cc1F [FLUCYTOSINE]', 'MIC50', 'µg/mL', 0.25),
  ('CC[C@H](C)C[C@H](C)CCCCCCCCC(=O)N[C@H]1C[C@@H](O)[C@@H](NCCN)NC(=O)[C@@H]2[C@@H](O)CCN2C(=O)[C@H]([C@H](O)CCN)NC(=O)[C@H]([C@H](O)[C@@H](O)c2ccc(O)cc2)NC(=O)[C@@H]2C[C@@H](O)CN2C(=O)[C@H]([C@@H](C)O)NC1=O [CASPOFUNGIN]', 'MIC50', 'µg/mL', 0.06);
